Form field: pIC50 (one value per entry).
# ASSAYED_TARGET: human Werner helicase (WRN-BV08, amino acids 517-1235 with L1074F point mutation) (Homo sapiens, UniProt Q14191, L1074F)
# Construct: [pFastBac1-WRN-(517-1235 L1074F)-TEV-8His]; 8xHis (C, cleaved yes); TEV cleavage site (ENLYFQG) (C)
# Sequence (Q14191 with tags, fused parts or gaps L1074F): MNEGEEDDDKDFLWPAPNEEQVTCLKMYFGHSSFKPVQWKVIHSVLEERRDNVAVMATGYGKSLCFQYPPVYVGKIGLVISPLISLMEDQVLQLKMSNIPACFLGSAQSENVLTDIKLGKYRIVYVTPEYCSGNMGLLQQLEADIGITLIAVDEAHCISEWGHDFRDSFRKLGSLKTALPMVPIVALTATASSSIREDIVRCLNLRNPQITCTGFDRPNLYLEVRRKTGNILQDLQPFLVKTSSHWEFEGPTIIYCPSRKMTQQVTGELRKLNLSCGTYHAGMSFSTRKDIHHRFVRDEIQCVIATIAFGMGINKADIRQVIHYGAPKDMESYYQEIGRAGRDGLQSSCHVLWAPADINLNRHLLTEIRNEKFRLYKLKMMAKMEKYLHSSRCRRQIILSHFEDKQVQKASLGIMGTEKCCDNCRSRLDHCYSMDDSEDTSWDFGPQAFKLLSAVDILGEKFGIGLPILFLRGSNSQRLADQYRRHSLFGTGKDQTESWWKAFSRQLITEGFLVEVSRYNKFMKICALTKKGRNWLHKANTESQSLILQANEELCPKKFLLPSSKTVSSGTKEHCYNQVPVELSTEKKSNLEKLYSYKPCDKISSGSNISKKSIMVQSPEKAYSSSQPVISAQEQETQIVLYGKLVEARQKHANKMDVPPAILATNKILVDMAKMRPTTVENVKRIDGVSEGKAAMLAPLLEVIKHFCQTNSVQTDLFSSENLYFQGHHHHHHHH
# TEST_SUMMARY: ADP-Glo WRN helicase ATPase inhibition assay
# ASSAY_SETUP: 0.15 nM WRN, 5 μM ATP, 0.1 nM DNA duplex; 15 minutes preincubation, 60 minutes at 25° C.; read-out: ADP-Glo_hWRN_IC50
pIC50: −log10 of the molar value.

Cc1ncnc(C(=O)N2CCN(c3c4n(c5nn(C6CC6)nc5c3=O)[C@@H](C(=O)Nc3ccc(C(F)(F)F)cc3Cl)C[C@@H]4C)[C@H]3CC[C@@H]32)c1O (relative stereo) [Compound I-28] : 7.30 to 8.30

Now look at this one.
Entry under test: COc1cc(-n2nc3c(=O)c(N4CCN(C(=O)c5ncnc(C)c5O)[C@H]5CC[C@@H]54)c4n(c3n2)[C@H](C(=O)Nc2ccc(C(F)(F)F)cc2Cl)C[C@H]4C)ccn1 (single isomer, unassigned) [Compound I-13] . Its pIC50 was ≥ 8.30

---

# ASSAYED_TARGET: human Werner helicase (WRN-BV08, amino acids 517-1235 with L1074F point mutation) (Homo sapiens, UniProt Q14191, L1074F)
# Construct: [pFastBac1-WRN-(517-1235 L1074F)-TEV-8His]; 8xHis (C, cleaved yes); TEV cleavage site (ENLYFQG) (C)
# TEST_SUMMARY: ADP-Glo WRN helicase ATPase inhibition assay
# ASSAY_SETUP: 0.15 nM WRN, 5 μM ATP, 0.1 nM DNA duplex; 15 minutes preincubation, 60 minutes at 25° C.; read-out: ADP-Glo_hWRN_IC50
pIC50: −log10 of the molar value.
MEASURED_QUANTITY: pIC50

COc1cc(-n2nc3c(=O)c(N4CCN(C(=O)c5ncnc(C)c5O)[C@H]5CC[C@@H]54)c4n(c3n2)[C@@H](C(=O)Nc2ccc(C(F)(F)F)cc2Cl)C[C@H]4C)ccn1 (single isomer, unassigned) [Compound I-5] : ≥ 8.30

Now look at this one.
Entry under test: Cc1ncnc(C(=O)N2CCN(c3c4n(c5nn(C6CC6)nc5c3=O)[C@H](C(=O)Nc3ccc(C(F)(F)F)cc3Cl)C[C@H]4C)[C@H]3CC[C@@H]32)c1O (relative stereo) [Compound I-27] . Its pIC50 was ≥ 8.30
